B1: Zinc finger MYM-type protein 2, residues 463 to 506; numbered along this chain, Q9UBW7 (parent)
chain: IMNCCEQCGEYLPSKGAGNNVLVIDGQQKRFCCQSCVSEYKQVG

# Variants of: B1
# TEST_SUMMARY: abundance fitness (aPCA) (normalised: wild type 0, dead -1); higher = more abundant; growth selection in yeast, the domain comes from the species named
# CONDITION_INFO: Homo sapiens
Dear colleague, classification is by abundance fitness, with ranges listed here: 1: < -0.3; 2: ≥ -0.3 and < -0.03; 3: ≥ -0.03

* IMNCCEQCGEYLPSKGAGNNVLVIDGQQKRFCTQSCVSEYKQVG | 2
* IMNCCEQCGEYLPSKGGGNNVLVIDGQQKRFCCQSCVSEYKQVG | 2
* IMNCCEQCGEYLPSKGAGNNVLVIDGQQKRFTCQSCVSEYKQVG | 1
* IMNCCEQCGEYLPSKGAGNNWLVIDGQQKRFCCQSCVSEYKQVG | 3
* IMNCCGQCGEYLPSKGAGNNVLVIDGQQKRFCCQSCVSEYKQVG | 2
* IMNCCEQCGEYLPSKGAGNNVLVIDGQQKRFCCQSCVSEYKGVG | 3
* IMNCCEQCGEYLPSKGAGNNVLVIDGQNKRFCCQSCVSEYKQVG | 2
* IMNCCEVCGEYLPSKGAGNNVLVIDGQQKRFCCQSCVSEYKQVG | 2
* IMNCCEQCGEYLPSKGAGNNVLVIDGQQKRFPCQSCVSEYKQVG | 1
* IMNCCEQCGEYLPSKGAGNNVLVIDGQQKRFCCQSCVSEYKQRG | 2
* IMNCCEQCGEYLPSKGAGNNVYVIDGQQKRFCCQSCVSEYKQVG | 3
